Target: T1, Human ROR1-ECD-his (Acro Biosystems RO1-H522y) (human, UniProt Q01973 30-406)
T1 construct: extracellular domain; bought protein; also called hROR1-ECD-his; hu-ROR1-ECD-his
T1 sequence (Q01973 30-406): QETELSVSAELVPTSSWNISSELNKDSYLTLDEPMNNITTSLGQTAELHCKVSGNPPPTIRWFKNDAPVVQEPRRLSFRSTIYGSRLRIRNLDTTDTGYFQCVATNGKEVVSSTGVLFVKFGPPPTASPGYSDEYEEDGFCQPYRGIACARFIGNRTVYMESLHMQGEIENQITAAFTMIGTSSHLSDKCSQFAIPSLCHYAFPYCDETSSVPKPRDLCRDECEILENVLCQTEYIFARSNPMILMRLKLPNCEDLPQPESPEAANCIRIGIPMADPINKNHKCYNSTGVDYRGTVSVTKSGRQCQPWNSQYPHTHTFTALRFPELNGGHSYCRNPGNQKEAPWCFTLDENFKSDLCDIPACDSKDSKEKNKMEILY
Assay: BLI, ROR1-His on HIS1K sensor, antibody in solution
reported_endpoint: koff (s⁻¹)
Provide the reading as a plain figure in s⁻¹.

Notebook: PR303199 (antibody, human IgG1, V domains shown, HCAb (heavy chain-only, human IgG1 Fc), no light chain) VH: EVQLVESGGGLVKPGGSLRLSCAASGFTFSDYYMSWIRQAPGKGLEWIAYISSSGSTIYYADSVKGRFTISRDNAKNSLYLQMNSLRAEDTAIYYCAREYYGSENYDHFDYWGQGTLVTVSS , koff read as 0.00173

Documented koff of PR303191 (antibody, human IgG1, V domains shown, HCAb (heavy chain-only, human IgG1 Fc), no light chain) VH: EVQLLESGGGLVQPGGSLRLSCAASGFIFGSYAMSWVRQAPGKGLEWVSGISGTGGNTYYADSVKGRFTISRDNSKNTLYLQMNSLRAEDTAVYFCERGITIHGVVIIPPDYRGQGTLVTVSS : 0.000115

The binder listed as PR303189 (antibody, human IgG1, V domains shown, HCAb (heavy chain-only, human IgG1 Fc), no light chain) VH: EVQLVESGGGLVKPGGSLRLSCAASGFNLSDSYMSWIRQAPGKGLEWVSCISSSGSTIYYADSVKGRFTVSRDNAKNSLYLQMNHLRAEDTALYYCARDCVIGIRDDSDIWGQGTMVTVSS has a reported koff of 0.00403

According to the records, this binder PR303201 (antibody, human IgG1, V domains shown, HCAb (heavy chain-only, human IgG1 Fc), no light chain) VH: EVQLLESGGGLVQPGGSLRLSCAASGFTFSGNAMSWVRQAPGKGLEWVSAISGSGDKTYYAASVKGRFTISRDNSNNTVYLQMNSLRAEDTAVYYCEKGAFRTTMDYWGQGTLVTVSS displays koff of 0.00626

For record PR303155 (antibody, human IgG1, V domains shown, HCAb (heavy chain-only, human IgG1 Fc), no light chain) VH: EVQLVESGGGLVKPGGSLRLSCAASGFTLSDYYMSWIRQAPGKGLEWISYISSNGSTIYYADSVKGRFTISRDNARNSLYLQMNSLRAEDTALYYCARDVSSGWYEDFDYWGQGTLVTVSS the listed koff is 0.00336

Item: PR303147 (antibody, human IgG1, V domains shown, HCAb (heavy chain-only, human IgG1 Fc), no light chain) VH: EVQLVESGGGLVQPGGSLRLSCAASGFTFSNFWMYWVRQAPGKGLVWVSRINSDGSSTNYADSVKGRFTISRDNAKNTLYLQMNSLRVEDTAVYSCAREGSGWYEDFDYWGQGTLVTVSS | koff: 0.0165

GET /value?item= PR303145 (antibody, human IgG1, V domains shown, HCAb (heavy chain-only, human IgG1 Fc), no light chain) VH: QVQLVESGGGLVKPGGSLRISCAASGFTFSNYNMSWIRQAPGKGVEWVSHISGSGRTIYYAESVKGRFTISRDNAKNSLYLQMNSLRAEDTAMYYCARDLSSGWYEDFDYWGQGTLVTVSS &field=koff returns 0.0031
